Where these numbers come from: the NIST ThermoML archive (doi:10.1016/j.tca.2006.10.025)

Experiment: molar heat capacity at constant pressure
Settings: 298.15 K; 101.33 kPa; Liquid; Small sample (50 mg) DSC
ASSAY_ENDPOINT: molar heat capacity at constant pressure (J/K/mol)
Report only the number, with the unit J/K/mol understood.

CCCCCCCCCCO	373.9
CO	81
C[S+](C)[O-] [dimethyl sulfoxide]	151.5
CCCCCCO	241.3
CCCO	144.9
CCCCO	175.3

The reported molar heat capacity at constant pressure of the compound `CCO` was 113.5

The reported molar heat capacity at constant pressure of the compound `CCCCCCCCO` was 304.4

---

In this section, each of the molecules is paired with its reported molar heat capacity at constant pressure.
Assay: molar heat capacity at constant pressure
Details: 323.15 K; 101.33 kPa; Liquid; Small sample (50 mg) DSC
Report only the number, with the unit J/K/mol understood.

The cases that follow already have their molar heat capacity at constant pressure on record.
CCCO [propan-1-ol]	160.1
CCCCCCO [hexan-1-ol]	268.9
CCO [ethanol]	128.2
CCCCCCCCCCO [decan-1-ol]	401.3
C[S+](C)[O-] [dimethyl sulfoxide]	156.6

The reported molar heat capacity at constant pressure of the molecule CCCCO [butan-1-ol] was 194.7

The reported molar heat capacity at constant pressure of the molecule CCCCCCCCO [octan-1-ol] was 332.7

The reported molar heat capacity at constant pressure of the molecule CO [methanol] was 89.5
